Tested on: HCT116
Test: AC50 cell viability (CellTiter-Glo); higher = less potent
Details: 48 h
result_type: AC50 cell viability (µM)
Numeric answer only, unit µM assumed.

Here's what some known entries look like.
[[record]]
compound = "COc1ccc(N(C(=O)Oc2c(C)cccc2C)c2ccnc(Nc3ccc(N4CCN(C)CC4)cc3)n2)c(OC)c1"
measured_result = 0.661

[[record]]
compound = "CCOc1cc(C(=O)N2CCC(N3CCN(C)CC3)CC2)ccc1Nc1ncc2c(n1)N(C1CCCC1)c1ccccc1C(=O)N2C"
measured_result = 7.42


Need AC50 cell viability of OC(c1ccc(-c2ccc(CN3CCN(Cc4ccncc4)CC3)cc2)c(F)c1)(C(F)(F)F)C(F)(F)F , thanks. 10.5

Need AC50 cell viability of CC(=O)NC(C)c1ccc(Oc2ccc(OC(C)C)cc2)cc1 (centres undefined) , thanks. 17.1

---

Tested on: HCT116
Experiment: efficacy (fitted maximal change in viability relative to DMSO control); higher = less cytotoxic (negative = loss of viability)
Settings: 48 h
result_type: efficacy (%)
Numeric answer only, unit % assumed.

Need efficacy of NC\1=N\C(=O)N(\C=C1)[C@@H]2CS[C@H](CO)O2 , thanks. -6.75

Need efficacy of COc1ncc(Nc2ncc([C@H](C)N3CCN([S+](C)(=O)[O-])CC3)cc2-c2nc(C)nc(N)n2)cc1F , thanks. -80.5

Need efficacy of C[C@H](NC(=O)C1=C2N=CC=C[N]2N=C1N)\C3=C\C4=CC=CC(=C4C(=O)N3C5=CC=CC=C5)C#CC6=C[N](C)N=C6 , thanks. -43.1

Need efficacy of CCCNC(=O)Nc1ccc(Oc2ncnc3cc(OC)c(OC)cc23)cc1Cl , thanks. -12.8

---

Tested on: HCT116
Test: efficacy (fitted maximal change in viability relative to DMSO control); higher = less cytotoxic (negative = loss of viability)
Conditions: 48 h
In this section, each of the molecules is paired with its reported efficacy.
Answer shape: numeric part, then the unit.

[[record]]
molecule = "CCN([C@H]1CC[C@@H](CC1)N(C)CCOC)C2=C(C)C(=CC(=C2)C#CCN3CCOCC3)C(=O)NC\\C4=C(C)\\C=C(\\C)NC4=O"
result_type = "efficacy"
measured_result = "-10.4%"

[[record]]
molecule = "CC1(C)CC\\C2=C(/O1)C3=C(C=CC=C3)C(=O)C2=O [beta-Lapachone]"
result_type = "efficacy"
measured_result = "-103%"

[[record]]
molecule = "N#CC(O[C@@H]1O[C@H](CO[C@@H]2O[C@H](CO)[C@@H](O)[C@H](O)[C@H]2O)[C@@H](O)[C@H](O)[C@H]1O)c1ccccc1 (some centres not stated) [Amygdalin]"
result_type = "efficacy"
measured_result = "29%"


# context switch: different molecule, same efficacy
Need efficacy of COC1=CC=C(C=C1)C/2=C/OC3=C(C(=CC(=C3)O)O)C2=O [Biochanin A] , thanks. -34.7%

---

System: HCT116
Assay: efficacy (fitted maximal change in viability relative to DMSO control); higher = less cytotoxic (negative = loss of viability)
Conditions: 48 h
Where a name gives a salt, the structure may show the parent alone.
Classification field: enter T for efficacy values not below -50%, F for values below it.

Does C=CC(=O)Nc1cc(N2CCN(CC)CC2)ccc1Nc1cc(N(C)C(=O)Nc2c(Cl)c(OC)cc(OC)c2Cl)ncn1 have a reported efficacy of at least -50%? T

Does CCN(CC)CCCC(C)Nc1nc(C)cc(Nc2ccc3nc(C)cc(N)c3c2)n1 (stereo not given) have a reported efficacy of at least -50%? F

Does CC(/C=C/C(=O)NO)=C\[C@@H](C)C(=O)c1ccc(N(C)C)cc1 have a reported efficacy of at least -50%? F

Does CC[C@@]1([C@@H]2O[C@@H]([C@H]3O[C@@](O)(CO)[C@H](C)C[C@@H]3C)C[C@@H]2C)CC[C@H]([C@]2(C)CC[C@]3(C[C@H](O)[C@@H](C)[C@@H]([C@@H](C)[C@@H](OC)[C@H](C)C(=O)[O-])O3)O2)O1 [Monensin sodium salt] have a reported efficacy of at least -50%? T

Does OC[C@H]1O[C@@H](OC2=CC3=C(C=C2)C(=O)\C(=C/O3)C4=CC=C(O)C=C4)[C@H](O)[C@@H](O)[C@@H]1O have a reported efficacy of at least -50%? T

Does COc1cccc([C@@H](C)NCCCc2ccccc2Cl)c1 have a reported efficacy of at least -50%? F

---

Tested on: HCT116
Test: efficacy (fitted maximal change in viability relative to DMSO control); higher = less cytotoxic (negative = loss of viability)
Conditions: 48 h
Classification field: enter TRUE for efficacy values not below -70%, FALSE for values below it.

// known answers, use as guide
[[record]]
structure_smiles = "C[C@@H]1CC[C@H]2[C@@H](C)C(=O)O[C@@H]3O[C@@]4(C)CC[C@@H]1[C@]32OO4"
class = "TRUE"

[[record]]
structure_smiles = "Cc1nc(N)ncc1-c1nc(N2CCOCC2)c2sc(C(C)(C)O)cc2n1"
class = "TRUE"

[[record]]
structure_smiles = "CCCCOc1ccc(CC(=O)NO)cc1"
class = "TRUE"

[[record]]
structure_smiles = "Nc1ncnc2c1nc(Cl)n2[C@@H]1O[C@H](CO)[C@@H](O)[C@H]1O"
class = "FALSE"

[[record]]
structure_smiles = "Cc1ccc([S+](=O)([O-])Nc2cc(C(F)(F)F)ccc2C(=O)Nc2nc(-c3ccccc3)cs2)cc1"
class = "FALSE"

[[record]]
structure_smiles = "COC(=O)c1ccc([C@H]2c3[nH]c4ccccc4c3C[C@H](C(=O)OC)N2C(=O)CCl)cc1"
class = "FALSE"


Below: the item to evaluate.
Does CC(C)c1ccc(Cn2ccc3c4c(N)nc(NC5CC5)nc4ccc32)cc1 have a reported efficacy of at least -70%? FALSE

---

In this section, each of the compounds is paired with its reported efficacy.
Tested on: HCT116
Assay: efficacy (fitted maximal change in viability relative to DMSO control); higher = less cytotoxic (negative = loss of viability)
Settings: 48 h
Where a name gives a salt, the structure may show the parent alone.

Here's what some known entries look like.
[[record]]
compound = "COc1cc(N2CCN(C)CC2)ccc1Nc1nccc(-c2cn(C)c3cnccc23)n1 [AZ-191]"
tested_system = "HCT116"
measured_result = "-88.4%"

[[record]]
compound = "CC1=CC(=C(O)C(=C1C\\C2=N\\CCN2)C)C(C)(C)C [Oxymetazoline hydrochloride]"
tested_system = "HCT116"
measured_result = "-19.1%"

[[record]]
compound = "CN(C)C1CCN(C(=O)c2ccc(NC(=O)Nc3ccc(-c4nc(N5CCOCC5)nc(N5CCOCC5)n4)cc3)cc2)CC1 [Gedatolisib]"
tested_system = "HCT116"
measured_result = "-69.6%"


Need efficacy of CN1CCN(CC1)C2=CC=C(NC3=NC=C4\C=C(\C#N)C(=O)N(C5CCCC5)C4=N3)C=C2 , thanks. -77.1%

---

System: HCT116
Assay: efficacy (fitted maximal change in viability relative to DMSO control); higher = less cytotoxic (negative = loss of viability)
Details: 48 h
In this section, each of the molecules is paired with its reported efficacy.
Numeric answer only, unit % assumed.

[[record]]
molecule = "CN(C)c1cc2c(cc1Sc1nc3c(N)nccc3n1CCNCC(C)(C)C)OCO2"
unit_tag = "%"
measured_result = -66.5


Please provide the recorded efficacy for COc1cccc2c1C(=O)c1c(O)c3c(c(O)c1C2=O)C[C@@](O)(C(=O)CO)CC3OC1CC(N2CCOC(OC)C2)C(O)C(C)O1 (some centres not stated) , tested on HCT116. -66

Please provide the recorded efficacy for CCC(=O)N[C@H]1CC[C@H](C(=O)N(C)c2ccc(-c3nc4ccccc4o3)cc2)C1 , tested on HCT116. -31.4

Please provide the recorded efficacy for C[C@]\12CC[C@H](O)CC1=C/C[C@@H]3[C@@H]2CC[C@@]\4(C)[C@H]3C\C=C4C5=CN=CC=C5 , tested on HCT116. 7.6

Please provide the recorded efficacy for O=C([O-])Cc1ccccc1Nc1c(Cl)cccc1Cl [Diclofenac sodium] , tested on HCT116. -6.7

Please provide the recorded efficacy for COc1cc2c(Nc3ccc(Cl)c(Cl)c3F)ncnc2cc1OC[C@@H]1C[C@@H]2CN(C)C[C@@H]2C1 , tested on HCT116. -119

Please provide the recorded efficacy for C[C@]12CCC3c4ccc(O)cc4CCC3C1CCC2=O (some centres not stated) , tested on HCT116. -24.4

---

System: HCT116
Experiment: AC50 cell viability (CellTiter-Glo); higher = less potent
Conditions: 48 h
In this section, each of the compounds is paired with its reported AC50 cell viability.
Numeric answer only, unit µM assumed.

Here's what some known entries look like.
[[record]]
compound = "CN(C)C1=C(Br)C=C(C=C1)C\\2NC3=C(\\C4=C2C(=O)CC(C)(C)C4)C5=CC=CC=C5C=C3 (configuration not stated)"
tested_system = "HCT116"
result_type = "AC50 cell viability"
measured_result = 9.34

[[record]]
compound = "O=C\\1NC(=O)\\C(=C1C2=C[NH]C3=C2C=CC=C3)C4=C[NH]C5=C4C=CC=C5 [Bisindolylmaleimide]"
tested_system = "HCT116"
result_type = "AC50 cell viability"
measured_result = 18.6

[[record]]
compound = "COc1ccc(C[C@@H](C)[C@@H](C)Cc2ccc(OC)c(OC)c2)cc1OC"
tested_system = "HCT116"
result_type = "AC50 cell viability"
measured_result = 1.05


Need AC50 cell viability of c1cc(-c2cnn3cc(-c4ccc(N5CCNCC5)cc4)cnc23)c2cccnc2c1 , thanks. 6.61

Need AC50 cell viability of CCNc1cc(NC2CCC(O)CC2)nc(Nc2ccc3c(ccn3Cc3ccccc3)c2)n1 (configuration not stated) , thanks. 20.9

Need AC50 cell viability of Cc1nc(NC(=O)N2CCCC2C(N)=O)sc1-c1ccnc(C(C)(C)C(F)(F)F)c1 (configuration not stated) , thanks. 3.72

Need AC50 cell viability of CC(C)(C)Sc1c(CC(C)(C)C(=O)O)n(Cc2ccc(Cl)cc2)c2ccc(OCc3ccc4ccccc4n3)cc12 , thanks. 20.9
